# Tested on: CEM cells HIV-1 protection, formazan growth assay
# TEST: NCI AIDS Antiviral Assay;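 active = compounds giving half or more protection of infected cells from virus-caused growth loss, again on retest; inactive = the rest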
# Procedure: The ability of compounds to protect human CEM cells from HIV-1 infection is measured as a screen for new compounds capable of inhibiting the HIV virus. Five concentrations of drug were tested on uninfected and infected cells and cell growth was measured using a soluble formazan assay. […] Compounds that provided at least 50% protection were retested. Compounds that provided at least 50% protection on retest were listed as moderately active. […]
Possible outcomes: active, inactive

- COMPOUND: "COc1ccccc1NC(=S)N/N=C/c1c(C)n(C)n(-c2ccccc2)c1=O"
  ANSWER LABEL: "inactive"
- COMPOUND: "N#Cc1c(N)nc([Se]CC(=O)c2ccc(Cl)cc2)c(C#N)c1-c1ccco1"
  ANSWER LABEL: "inactive"
- COMPOUND: "Cn1c(O)c(N=Nc2ccccc2[N+](=O)[O-])c2ccccc21"
  ANSWER LABEL: "inactive"
- COMPOUND: "Cc1cn(C2CC(O)C(COC(=O)CCCCCCCCCCCN=[N+]=[N-])O2)c(=O)[nH]c1=O (stereo not given)"
  ANSWER LABEL: "active"
- COMPOUND: "c1ccc2c3nc4ccccc4c-3scc2c1"
  ANSWER LABEL: "inactive"

###

# Tested on: CEM cells HIV-1 protection, formazan growth assay
# TEST: NCI AIDS Antiviral Assay;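 active means compounds giving half or more protection of infected cells from virus-caused growth loss, again on retest; inactive means the rest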
Possible outcomes: active, inactive

- MOLECULE: "CC1(C)OC(=O)c2cc(C(=CCCBr)c3cc(Cl)c4c(c3)C(=O)OC(C)(C)O4)cc(Cl)c2O1"
  ANSWER LABEL: "inactive"
- MOLECULE: "CCOCc1c(C(=O)NCCO)[n+](=O)c2ccccc2n1[O-]"
  ANSWER LABEL: "inactive"
- MOLECULE: "COc1cc(C(=O)/C=C/c2ccccc2O)ccc1O"
  ANSWER LABEL: "inactive"
- MOLECULE: "Cc1ccc(S(=O)(=O)N(/N=C/C=C/c2ccccc2)c2nnc(-c3ccccc3)c(-c3ccccc3)n2)cc1"
  ANSWER LABEL: "inactive"
- MOLECULE: "O=C1Nc2ccc(cc2)Cc2ccc(cc2)NC(=O)N2CCN(CC2)C(=O)Nc2ccc(cc2)Cc2ccc(cc2)NC(=O)N2CCN1CC2"
  ANSWER LABEL: "inactive"
- MOLECULE: "CN(C)c1ccc(-c2nc(-c3cc4c(ccc5ccccc54)oc3=O)cs2)cc1"
  ANSWER LABEL: "inactive"
- MOLECULE: "COC(=O)C(=O)C(C(=O)C(=O)Nc1ccccc1[N+](=O)[O-])c1nc2ccc([N+](=O)[O-])cc2[nH]c1=O (centres undefined)"
  ANSWER LABEL: "inactive"
- MOLECULE: "Cc1cc(S(=O)(=O)Nc2nc3ccccc3c(=O)n2N)c(S)cc1Cl"
  ANSWER LABEL: "active"

###

Below, each entry is listed alongside its reported EC50.
# System: CEM cells HIV-1 protection, formazan growth assay
# TEST: NCI AIDS Antiviral Assay

- MOLECULE: "C=C1C(OC)O[C@@H]2O[C@@]3(C)CC[C@H]4[C@H](C)CC[C@@H]1[C@@]24O3 (stereo not given in full)"
  EC50: "> 200 µM"
- MOLECULE: "CCOC(=O)C(=CNC(=S)Nc1ccccc1)C(=O)OCC"
  EC50: "> 200 µM"
- MOLECULE: "CN1c2c(C(=O)NCCCN3CCOCC3)nn(-c3cccc(C(F)(F)F)c3)c2-c2ccccc2S1(=O)=O"
  EC50: "> 66.1 µM"
- MOLECULE: "CC(C)(CN1CCCCC1)C(=O)/C=C/c1ccc(Cl)c(Cl)c1"
  EC50: "> 33.1 µM"
- MOLECULE: "CC1CCC2[C@@H](C)COC3O[C@]4(C)CCC1C32OO4 (stereo not given in full)"
  EC50: "> 339 µM"

Origin of values: PubChem BioAssay AID179
